# PROCEDURE_TEXT: in vivo
# COND: male, Wistar, rat, po, 10 mg/kg
Starred links: 1 amine or outer side, 2 acyl side, 3 side chain; linkers in the order of their positions; H or OH if unused. Non-standard residues stand in square brackets, D forms with d. Residues, ends and D or L forms follow the SMILES beside them. X1 = CC(C)C[C@H](NC(=S)[C@H](Cc1ccc(O)cc1)N[*:1])C(=O)[*:2]; X2 = CC(C)C[C@H](NC(=S)[C@@H](CC(C)C)N[*:1])C(=O)[*:2]; NMeL = CN[C@@H](CC(C)C)C(=O)O
In this section, each of the molecules is paired with its reported level at 3 h.
OBSERVED_PROPERTY: level at 3 h

MOLECULE: CC(C)C[C@@H]1NC(=O)[C@H](Cc2ccc(O)cc2)NC(=O)[C@H]2CCCN2C(=O)[C@H](CC(C)C)NC(=O)[C@H](CC(C)C)NC(=S)[C@@H](CC(C)C)NC1=O [10a] (cyclo(L[dP]YL[X2]))
DATA_VALUE: 3 ng/mL
//
MOLECULE: CC(C)C[C@@H]1NC(=O)[C@@H](CC(C)C)NC(=O)[C@H](CC(C)C)N(C)C(=O)[C@H](Cc2ccc(O)cc2)NC(=O)[C@H]2CCCN2C(=O)[C@H](CC(C)C)NC1=O [10k] (cyclo(LL[dP]Y[NMeL][dL]))
DATA_VALUE: 26.6 ng/mL
//
MOLECULE: CC(C)C[C@@H]1NC(=O)[C@@H](CC(C)C)NC(=O)[C@H](CC(C)C)NC(=S)[C@H](Cc2ccc(O)cc2)NC(=O)[C@H]2CCCN2C(=O)[C@H](CC(C)C)NC1=O [10e] (cyclo(LL[dP][X1][dL]))
DATA_VALUE: 32.6 ng/mL

----------
# PROCEDURE_TEXT: physchem
# COND: pH 7.4
Starred links: 1 amine or outer side, 2 acyl side, 3 side chain; linkers in the order of their positions; H or OH if unused. Non-standard residues stand in square brackets, D forms with d. Residues, ends and D or L forms follow the SMILES beside them. X6 = O=C([C@H](Cc1ccc(O)cc1)NC(=S)[C@H]1CCCN1[*:1])[*:2]; X17 = CC[C@H](C)[C@H](N[*:1])C(=S)N1CCC[C@H]1C(=O)[*:2]; AlaΨ(CSNH)Ala = C[C@H](NC(=S)[C@H](C)N[*:1])C(=O)[*:2]; X9 = O=C([C@@H]1CCCN1C(=S)[C@H](Cc1ccccc1)N[*:1])[*:2]
In this section, each of the compounds is paired with its reported logD.

COMPOUND: CC[C@H](C)[C@@H]1NC(=O)[C@@H]2CCCN2C(=O)[C@H]([C@@H](C)CC)NC(=O)[C@@H]2CCCN2C(=S)[C@H](Cc2ccccc2)NC(=O)[C@H](C)NC(=O)[C@H](C)NC1=O [11d] (cyclo(AA[X9]IPI))
logD: 0.33

COMPOUND: CC[C@H](C)[C@@H]1NC(=O)[C@@H]2CCCN2C(=S)[C@H]([C@@H](C)CC)NC(=O)[C@@H]2CCCN2C(=O)[C@H](Cc2ccccc2)NC(=O)[C@H](C)NC(=O)[C@H](C)NC1=O [11f] (cyclo(AAFP[X17]I))
logD: 0.37

COMPOUND: CN(C(=O)[C@@H](N)Cc1ccccc1)[C@@H](CCCCN)C(=O)O
logD: -1.95

COMPOUND: CC[C@H](C)[C@@H]1NC(=O)[C@@H]2CCCN2C(=O)[C@H]([C@@H](C)CC)NC(=O)[C@@H]2CCCN2C(=O)[C@H](Cc2ccccc2)NC(=O)[C@H](C)NC(=S)[C@H](C)NC1=O [11b] (cyclo(FPIPI[AlaΨ(CSNH)Ala]))
logD: 0.28

COMPOUND: CC(C)C[C@@H]1NC(=O)[C@H](Cc2ccc(O)cc2)NC(=S)[C@H]2CCCN2C(=O)[C@H](CC(C)C)NC(=O)[C@H](CC(C)C)NC(=O)[C@@H](CC(C)C)NC1=O [10d] (cyclo(LL[X6]L[dL]))
logD: 1.24

----------
In this section, each of the compounds is paired with its reported remaining at 8 h.
# TARGET_OF_ASSAY: pepsin (Sus scrofa, UniProt P00791)
# Sequence (P00791 60-385): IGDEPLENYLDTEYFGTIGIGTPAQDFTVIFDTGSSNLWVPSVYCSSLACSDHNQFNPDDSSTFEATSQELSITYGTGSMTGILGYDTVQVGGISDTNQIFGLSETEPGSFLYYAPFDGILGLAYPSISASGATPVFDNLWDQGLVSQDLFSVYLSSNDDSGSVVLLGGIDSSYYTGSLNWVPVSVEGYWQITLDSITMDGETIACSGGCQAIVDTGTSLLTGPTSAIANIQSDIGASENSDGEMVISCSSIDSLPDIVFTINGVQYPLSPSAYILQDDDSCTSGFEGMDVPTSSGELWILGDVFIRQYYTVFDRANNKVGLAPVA
# PROCEDURE_TEXT: in vitro
# COND: simulated gastric fluid, pH 1.2
Starred links: 1 amine or outer side, 2 acyl side, 3 side chain; linkers in the order of their positions; H or OH if unused. Non-standard residues stand in square brackets, D forms with d. Residues, ends and D or L forms follow the SMILES beside them. X2 = CC(C)C[C@H](NC(=S)[C@@H](CC(C)C)N[*:1])C(=O)[*:2]; X5 = CC(C)C[C@H](NC(=S)[C@H](CC(C)C)N[*:1])C(=O)[*:2]; NMeY = CN[C@@H](Cc1ccc(O)cc1)C(=O)O
OBSERVED_PROPERTY: remaining at 8 h (%)

COMPOUND: CC(C)C[C@@H]1NC(=O)[C@H](Cc2ccc(O)cc2)NC(=O)[C@H]2CCCN2C(=O)[C@H](CC(C)C)NC(=S)[C@H](CC(C)C)NC(=O)[C@@H](CC(C)C)NC1=O [10b] (cyclo(L[dL][X5][dP]Y))
DATA_VALUE: 17

COMPOUND: CC(C)C[C@@H]1NC(=O)[C@@H](CC(C)C)NC(=O)[C@H](CC(C)C)NC(=O)[C@H](Cc2ccc(O)cc2)N(C)C(=O)[C@H]2CCCN2C(=O)[C@H](CC(C)C)NC1=O [10j] (cyclo(LL[dP][NMeY]L[dL]))
DATA_VALUE: 0

COMPOUND: CC(C)C[C@@H]1NC(=O)[C@H](Cc2ccc(O)cc2)NC(=O)[C@H]2CCCN2C(=O)[C@H](CC(C)C)NC(=O)[C@H](CC(C)C)NC(=S)[C@@H](CC(C)C)NC1=O [10a] (cyclo(L[dP]YL[X2]))
DATA_VALUE: 19

COMPOUND: CC(C)C[C@@H]1NC(=O)[C@H](Cc2ccc(O)cc2)NC(=O)[C@H]2CCCN2C(=O)[C@H](CC(C)C)NC(=O)[C@H](CC(C)C)NC(=O)[C@@H](CC(C)C)NC1=O [compound 10, cyclo(-D-Leu^1-Leu-Leu-D-Pro-Tyr-Leu^6-)] (cyclo(LL[dP]YL[dL]))
DATA_VALUE: 6

----------
# PROCEDURE_TEXT: in vitro
# COND: human, microsomes
Starred links: 1 amine or outer side, 2 acyl side, 3 side chain; linkers in the order of their positions; H or OH if unused. Non-standard residues stand in square brackets, D forms with d. Residues, ends and D or L forms follow the SMILES beside them. X3 = CC(C)C[C@H](N[*:1])C(=S)N[C@H](CC(C)C)C(=O)[*:2]; X5 = CC(C)C[C@H](NC(=S)[C@H](CC(C)C)N[*:1])C(=O)[*:2]; NMeL = CN[C@@H](CC(C)C)C(=O)O

MOLECULE: CC(C)C[C@@H]1NC(=O)[C@@H](CC(C)C)NC(=S)[C@H](CC(C)C)NC(=O)[C@H](Cc2ccc(O)cc2)NC(=O)[C@H]2CCCN2C(=O)[C@H](CC(C)C)NC1=O [10f] (cyclo(LL[dP]Y[X3]))
microsomal CLint (µL/min/mg): 33
//
MOLECULE: CC(C)C[C@@H]1NC(=O)[C@H](Cc2ccc(O)cc2)NC(=O)[C@H]2CCCN2C(=O)[C@H](CC(C)C)NC(=S)[C@H](CC(C)C)NC(=O)[C@@H](CC(C)C)NC1=O [10b] (cyclo(L[dL][X5][dP]Y))
microsomal CLint (µL/min/mg): 73
//
MOLECULE: CC(C)C[C@@H]1NC(=O)[C@H](Cc2ccc(O)cc2)NC(=O)[C@H]2CCCN2C(=O)[C@H](CC(C)C)N(C)C(=O)[C@H](CC(C)C)NC(=O)[C@@H](CC(C)C)NC1=O [10i] (cyclo(L[NMeL][dP]YL[dL]))
microsomal CLint (µL/min/mg): 113
//
MOLECULE: CC(C)C[C@@H]1NC(=O)[C@H](Cc2ccc(O)cc2)NC(=O)[C@H]2CCCN2C(=O)[C@H](CC(C)C)NC(=O)[C@H](CC(C)C)N(C)C(=O)[C@@H](CC(C)C)NC1=O [10h] (cyclo(L[dL][NMeL]L[dP]Y))
microsomal CLint (µL/min/mg): 49

----------
In this section, each of the compounds is paired with its reported Papp A-B set 1 (second block).
# Test system: Caco-2 cells;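 also: Caco-2 monolayers used 21 days after seeding in HBSS-HEPES buffer with 1% DMSO, donor and acceptor levels quantified by LC-MS/MS, TEER checked before and after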
# PROCEDURE_TEXT: in vitro
# Type: in vitro ADME, human
# COND: Caco-2
Starred links: 1 amine or outer side, 2 acyl side, 3 side chain; linkers in the order of their positions; H or OH if unused. Non-standard residues stand in square brackets, D forms with d. Residues, ends and D or L forms follow the SMILES beside them. X1 = CC(C)C[C@H](NC(=S)[C@H](Cc1ccc(O)cc1)N[*:1])C(=O)[*:2]; X2 = CC(C)C[C@H](NC(=S)[C@@H](CC(C)C)N[*:1])C(=O)[*:2]; X4 = CC(C)C[C@H](N[*:1])C(=S)N1CCC[C@@H]1C(=O)[*:2]
OBSERVED_PROPERTY: Papp A-B set 1 (second block) (cm/s)

COMPOUND: CC(C)C[C@@H]1NC(=O)[C@@H](CC(C)C)NC(=O)[C@H](CC(C)C)NC(=S)[C@H](Cc2ccc(O)cc2)NC(=O)[C@H]2CCCN2C(=O)[C@H](CC(C)C)NC1=O [10e] (cyclo(LL[dP][X1][dL]))
DATA_VALUE: 2.06e-06
--
COMPOUND: CC(C)NCC(O)COc1cccc2ccccc12 (stereo not shown) [Propranolol, reference compound]
DATA_VALUE: 1.728e-05
--
COMPOUND: CC(C)C[C@@H]1NC(=O)[C@H](Cc2ccc(O)cc2)NC(=O)[C@H]2CCCN2C(=S)[C@H](CC(C)C)NC(=O)[C@H](CC(C)C)NC(=O)[C@@H](CC(C)C)NC1=O [10c] (cyclo(L[dL]L[X4]Y))
DATA_VALUE: 0.00
--
COMPOUND: CC(C)C[C@@H]1NC(=O)[C@H](Cc2ccc(O)cc2)NC(=O)[C@H]2CCCN2C(=O)[C@H](CC(C)C)NC(=O)[C@H](CC(C)C)NC(=S)[C@@H](CC(C)C)NC1=O [10a] (cyclo(L[dP]YL[X2]))
DATA_VALUE: 3.14e-06
